Give growth inhibition for every item shown.
EXPERIMENT DESCRIPTION: NCI Yeast Anticancer Drug Screen. Data for the cln2 rad14 strain (AID 165);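 note: 0% = growth equal to vehicle treated cultures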
EXPERIMENTAL PARAMETERS: S. cerevisiae cln2 rad14 strain, at 50.0 µM, active compounds read high
This is part of a sample that, as a whole, favours compounds with a hit. Of some 79,000 tested, about 15% had one in any assay.
Write the value in % as a bare number.

INPUT: Identify measured growth inhibition associated with "O=c1[nH]c2ccccc2c2ccc(Br)cc12"
OUTPUT: 7.3

INPUT: # return recorded growth inhibition for input "COc1ccc(-c2nc(N)nc3c2CN(CCC(=O)O)C3=O)cc1"
OUTPUT: -8.6

INPUT: Assign growth inhibition to the following record: "O=C(/C=C/c1ccc(OCCSCCCCCCCCCCSCCOc2ccc(/C=C/C(=O)c3ccc(Cl)cc3)cc2)cc1)c1ccc(Cl)cc1"
OUTPUT: 13.7

INPUT: Quote growth inhibition reported for "CSc1cnn(-c2ccccc2)[n+]1[O-]" please.
OUTPUT: -42.5

INPUT: // fetch growth inhibition given entry "COC(=O)/C=C(\C(=O)OC)c1cc(C)c2cc(C(C)C)ccc(C)c1-2"
OUTPUT: 13.8

###

EXPERIMENT DESCRIPTION: NCI Yeast Anticancer Drug Screen. Data for the bub3 strain (AID 167)
EXPERIMENTAL PARAMETERS: S. cerevisiae bub3 mutant strain, at 50.0 µM, active compounds read high
Experimental: Growth inhibition of yeast strains with defined genetic alterations is measured as a screen for potential anti-cancer activity. Selected strains with alterations in DNA damage repair or cell cycle control were exposed to compounds and growth inhibition was measured relative to vehicle treated controls. The strain used in this assay is bub3
About 79,000 compounds went through this panel and 15% of them were active in at least one assay; those are over-represented in the sample as a whole. Activity calls are given as the source filed them. Rule as the data show it: active = growth inhibition above about 70%; inactive = the rest.
PROPERTY MEASURED: growth inhibition

INPUT: Specify reported growth inhibition for the compound shown: O=C1OC(=O)C2C3C=CC(C4C=C(C5CC5)C43)C12 (stereo not given)
OUTPUT: -5.5% (inactive)

INPUT: Identify measured growth inhibition corresponding to CC(=O)OC/C=C(\C)CC(/C=C(C)/C=C/C1=C(C)CCCC1(C)C)S(=O)(=O)c1ccccc1 (stereo not given)
OUTPUT: 0.2% (inactive)

INPUT: // fetch growth inhibition given entry O=C1OC(=O)C2C1C1CCC2C1(c1ccccc1)c1ccccc1 (stereo not given)
OUTPUT: -0.05% (inactive)

INPUT: Return growth inhibition for the following compound: CC1OC1P(=O)(O)O (stereo not given)
OUTPUT: -3.3% (inactive)

INPUT: Please list growth inhibition recorded for the compound "Cc1ccc(N=Nc2ccc(C)cc2NC(=O)c2ccc(Cl)c(Cl)c2)cc1"
OUTPUT: 7.8% (inactive)

INPUT: Provide measured growth inhibition value, entry: CCOC(=O)C1=C(C)N(NC(=O)OC)C2(N)N(NC(=O)OC)C(C)=C(C(=O)OCC)C12C#N (stereo not given)
OUTPUT: 2.5% (inactive)

INPUT: Give recorded growth inhibition. CCN(CC)CCSC(=O)C(O)(c1ccccc1)c1cccc(C)c1 (stereo not given)
OUTPUT: -1.4% (inactive)

INPUT: Quick one: give measured growth inhibition for "O=C(Nc1ccc(Cl)c(Cl)c1)c1ccc(Cl)cc1"
OUTPUT: 19.1% (inactive)

INPUT: Return growth inhibition (reported value) for this compound: "C=CCc1cc(N)ccc1O"
OUTPUT: 11.7% (inactive)

INPUT: Complete the entry with growth inhibition for "CCCCCCCOCC(=O)O"
OUTPUT: 1.25% (inactive)

INPUT: Using known records, supply growth inhibition for "CC(C)NC(=O)OCCN=c1c2ccccc2ccc2ccccc12"
OUTPUT: 60.1% (inactive)

INPUT: Read off the recorded growth inhibition for "CCOC(=O)[C@]1(Br)CC[C@]1(Br)C(=O)OCC"
OUTPUT: -29.1% (inactive)

INPUT: Write down growth inhibition measured for item "NC(=O)CNC(=O)CN1C(=O)c2ccccc2C1=O"
OUTPUT: 2.1% (inactive)

INPUT: Read the entry "COc1ccccc1C(c1ccccc1OC)c1ccccc1C(=O)O" and write its reported growth inhibition.
OUTPUT: 6.05% (inactive)

INPUT: Find the measured growth inhibition of CC1=C(CCC(C)CO)OC2CC3C4CCC5CC(O)CCC5(C)C4CCC3(C)C12 (stereo not given) and report it.
OUTPUT: -21.1% (inactive)

INPUT: Name the recorded growth inhibition of the compound listed here: "O=C1N(CCN2CCC3(CC2)OCCO3)CCN1c1cc(Cl)cc(Cl)c1"
OUTPUT: 24.6% (inactive)

INPUT: Input O=C(O)C(C(=O)O)C(O)c1c2ccccc2cc2ccccc12 (stereo not given) , output reported growth inhibition.
OUTPUT: 0.6% (inactive)

INPUT: Name the recorded growth inhibition of the item c1ccc2c(c1)N=C(c1ccc3ccccc3c1)CC(c1cccc3ccccc13)S2 (stereo not given) in your answer.
OUTPUT: 19.3% (inactive)

INPUT: For O=S(=O)(O)C(Nc1ccc(Cl)cc1)c1ccccc1 (stereo not given) , write its growth inhibition.
OUTPUT: 11.2% (inactive)

INPUT: // Input: "Nc1c(-c2nc3ccccc3[nH]2)sc(=S)n1-c1ccccc1" . Output its growth inhibition only.
OUTPUT: -4.2% (inactive)

INPUT: Retrieve growth inhibition measured for "CCN(Cc1ccc(C(=O)OC)cc1)c1cccc(NC(C)=O)c1" and print it.
OUTPUT: 20.3% (inactive)

INPUT: Give me measured growth inhibition, please, for this compound: BrC1CCC(Br)CC1 (stereo not given)
OUTPUT: -2.3% (inactive)

INPUT: Identify measured growth inhibition associated with "COC(=O)/C(=C\Nc1cccc(C)n1)S(=O)(=O)c1ccc(C)cc1"
OUTPUT: 7.3% (inactive)

INPUT: Return value of growth inhibition for input "Cn1ccnc1SC(=O)C(Cl)(c1ccccc1)c1ccccc1" , no commentary.
OUTPUT: 0.35% (inactive)

INPUT: Give the measured growth inhibition for "Cc1nc[nH]c(=O)c1N"
OUTPUT: 7.75% (inactive)

###

EXPERIMENT DESCRIPTION: NCI Yeast Anticancer Drug Screen. Data for the sgs1 mgt1 strain (AID 161);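 note: 0% = growth of cultures given vehicle only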
EXPERIMENTAL PARAMETERS: S. cerevisiae sgs1 mgt1 strain, at 50.0 µM, active compounds read high
The panel holds about 79,000 compounds, 15% with a hit somewhere; the sample as a whole holds those more often.
Consider the following compounds; for each one, report its growth inhibition.
API: value field is a number in %; no unit string.

INPUT: Tell me growth inhibition reported for Cc1ccc(C(=O)CC(C#N)c2ccccc2)cc1 (stereo not drawn)
OUTPUT: 13.4

INPUT: Indicate the recorded growth inhibition value for this compound: CC(=O)C(N=NC1CCC(S(=O)(=O)NB2N=CS2)CC1)C(=O)Nc1ccccc1C (stereo not drawn)
OUTPUT: -5.9

INPUT: // Input: O=S(c1ccccc1)[C@H]1CC2C3CC4C2C4C31 (stereo partly drawn) . Output its growth inhibition only.
OUTPUT: -1.7

INPUT: Give me measured growth inhibition, please, for this compound: CC(=O)C1COC(O)C1C (stereo not drawn)
OUTPUT: -15.2

INPUT: Please report growth inhibition for the following compound: COC(=O)C1[C@@H](C(=O)OC)C12C=Cc1ccccc1C=C2 (stereo partly drawn)
OUTPUT: -50.2

INPUT: Kindly indicate its recorded growth inhibition. Item: "C(=Nc1ccccc1)Nc1ccccc1"
OUTPUT: 16.4

INPUT: Identify the reported growth inhibition for the following entry. "CNC(=O)c1ccc(C(C)C)cc1"
OUTPUT: -5.3

INPUT: Entry CC1CN(c2ccccc2)NC1=O (stereo not drawn) needs its growth inhibition filled in; supply it.
OUTPUT: 0.05

INPUT: Quickly give me recorded growth inhibition for COc1ccc(C(Cc2ccccc2Cl)N(CCO)CCO)cc1 (stereo not drawn)
OUTPUT: -9.1

INPUT: Supply measured growth inhibition of CCCCC(CC)C(C(C)=O)N(C)C (stereo not drawn) in your reply.
OUTPUT: 13.1

INPUT: State, in one line, measured growth inhibition of NC(=O)NC(Cc1ccccc1)(C(=O)O)c1ccccc1 (stereo not drawn)
OUTPUT: 35.9

INPUT: Give reported growth inhibition value for N#CC(C(N)=O)C(CC(=O)c1ccccc1)c1ccccc1 (stereo not drawn)
OUTPUT: 13.3

INPUT: Give the measured growth inhibition for "CCOC(=O)C(CC[C@@H]1N[C@H](C(N)=O)Cc2c1[nH]c1ccccc21)C(=O)OCC"
OUTPUT: 5.3

###

EXPERIMENT DESCRIPTION: NCI Yeast Anticancer Drug Screen. Data for the sgs1 mgt1 strain (AID 161);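 note: 0% = growth of cultures given vehicle only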
EXPERIMENTAL PARAMETERS: S. cerevisiae sgs1 mgt1 strain, at 50.0 µM
Experimental: Growth inhibition of yeast strains with defined genetic alterations is measured as a screen for potential anti-cancer activity. Selected strains with alterations in DNA damage repair or cell cycle control were exposed to compounds and growth inhibition was measured relative to vehicle treated controls. The strain used in this assay is sgs1 mgt1
The panel holds about 79,000 compounds, 15% with a hit somewhere; the sample as a whole holds those more often. Activity calls are given as the source filed them. No stated cut-off is given here; in the data, active means growth inhibition above about 70%; inactive means the rest.
Write down one outcome, taken from yes (1) = active, no (0) = inactive

INPUT: # fetch the recorded call for COc1cccc(NC(=O)C(=O)C(C(=O)c2ccccc2F)C2OC(=O)c3ccccc32)c1 (stereo unspecified) here
OUTPUT: no (0)

INPUT: Outcome? "CC(C)CCNc1nc(N)[nH]c(=O)c1NC=O"
OUTPUT: no (0)

INPUT: What call does the record list for "C(=C\c1ccc(/C=C/c2ccccc2)nn1)/c1ccccc1" ?
OUTPUT: no (0)

INPUT: Please let me know the test result on file for CCCCC(ON=C(C)C)C(=O)OC (stereo unspecified) .
OUTPUT: no (0)

INPUT: Look up the recorded call for "COc1cc(/C=C/C(=O)NCCc2c[nH]c3ccc(O)cc23)ccc1O" in this test.
OUTPUT: no (0)

INPUT: What is the recorded call for this compound in the test? CC(=O)OC1CCC2(C)C(=CCC3C4CCC(=O)NC4(C)CCC32)C1 (stereo unspecified)
OUTPUT: no (0)

INPUT: Can you look up the reported call for "c1ccc(Nc2cc(Nc3ccccc3)ncn2)cc1" for me?
OUTPUT: no (0)

INPUT: Hello, I am checking results. What call was entered for O=S1(=O)CCC(N(N=C2CCCCC2)c2ccccc2)C1 (stereo unspecified) ?
OUTPUT: yes (1)

INPUT: Any idea what this test logged for "O=C(c1ccccc1CO)N1CCCCC1" ?
OUTPUT: no (0)

INPUT: Hi, sorry to bother you, what did the test record for "O=C(c1ccc(Cl)cc1)c1ccc(OCCSCCCCCCCCCCSCCOc2ccc(C(=O)c3ccc(Cl)cc3)cc2)cc1" ?
OUTPUT: no (0)

INPUT: Status in this test for C/C=C(/C)C(C#N)(CCC)C(=O)OCC (stereo unspecified) ?
OUTPUT: no (0)

Data provenance: PubChem BioAssay (NCI)
